- measurement target: T1, human MSLN-R2-his protein (human, UniProt Q13421 391-486)
- T1 construct: it is put last here; also called human MSLN-R2 protein; hMSLN-R2-his; not shown: His tag
- T1 sequence (Q13421 other isoform, or with tags, fused parts or gaps): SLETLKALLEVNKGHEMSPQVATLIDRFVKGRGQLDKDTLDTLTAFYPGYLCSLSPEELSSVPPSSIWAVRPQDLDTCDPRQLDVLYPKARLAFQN
- assay method text: ELISA on coated antigen, antibody 2 nM
Provide the recorded OD450 for the entries that follow.
Give bare numbers, in OD.

{"binder": "S009-F7.18.10 (antibody, human IgG1, kappa, V domains shown, Human-murine chimeric antibody, human IgG1 heavy and kappa light constant regions) VH: QVQLQQSGAELVRPGTSVKVSCKASGYAFTNYLIEWVKQRPGQGLEWIGVINPGSGGTKYNEKFKGKATLTADKSSSTAYMQLSSLTSEDSAVYFCASDYDYDPFAYWGQGTLVTVSA VL: DIVMTQSHKFMSTSVGDRVSITCKASQDVSTAVAWYQRKPGQSPKLLIYWASTRHTGVPDRFTGSGSGTDYTLTISYMQAEDLALYYCQQHYSTPYTFGGGTKLEIKR", "measured metric": "OD450", "scale unit": "OD", "recorded number": 0.09}

In the following, a different binder is considered.
Please report the measured OD450 for S009-F7.30.5 (antibody, human IgG1, kappa, V domains shown, Human-murine chimeric antibody, human IgG1 heavy and kappa light constant regions) VH: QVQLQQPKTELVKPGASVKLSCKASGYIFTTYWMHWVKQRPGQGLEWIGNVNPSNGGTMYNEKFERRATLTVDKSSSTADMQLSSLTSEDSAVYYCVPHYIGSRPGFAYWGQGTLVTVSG VL: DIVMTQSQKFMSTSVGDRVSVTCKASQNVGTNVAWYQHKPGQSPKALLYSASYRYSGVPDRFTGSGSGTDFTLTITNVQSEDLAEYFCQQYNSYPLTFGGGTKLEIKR
0.06
